# MIC80 per entry
- Test system: Human rhinovirus sp.
- assay_info: In vitro concentration which inhibits 80% of serotypes tested
- Format: functional
recorded_endpoint: MIC80

1) O=C(O)c1ccc(OCCCCC(=O)c2ccc(Cl)s2)cc1; > 29.5 µM
2) Cn1cccc1C(=O)CCCCOc1ccc(C2=NCCO2)cc1; > 30.7 µM
3) Cc1ccc(C(=O)CCCCOc2ccc(C(=O)NCCO)cc2)o1; > 30.6 µM
4) Cc1ccsc1C(=O)CCCCOc1ccc(C2=NCCO2)cc1; > 29.1 µM
